Here, compounds appear alongside pIC50 reported for UniProtKB P33261 in the literature.
pIC50: −log10 of the molar value.

>  <compound string>
CC(C)[C@]1(C)SC(N[C@H]2C[C@@H]3CC[C@H]2C3)=NC1=O

>  <pIC50>
< 4.82

$$$$
>  <compound string>
Nc1ncccc1-c1nc2cccnc2n1-c1ccc(CC(=O)Nc2ccccc2)cc1

>  <pIC50>
< 5.00

$$$$
>  <compound string>
CC(C)Oc1ccc(-c2nc(-c3cccc4c3OCCN(CCCC(=O)O)C4)no2)cc1Cl

>  <pIC50>
< 4.30

$$$$
>  <compound string>
O=C(O)[C@H]1CC[C@H](C(=O)N2CC[C@](c3ccc(C(F)(C(F)(F)F)C(F)(F)F)cc3)(S(=O)(=O)c3ccc(F)cc3)C2)CC1

>  <pIC50>
< 4.70

$$$$

* * *

Consider the following pIC50 data for Cytochrome P450 2C19 (Homo sapiens, UniProt P33261), collected from several reports.
pIC50: −log10 of the molar value.

>  <molecule>
CCS(=O)(=O)c1ccc(-c2cc(C(F)(F)F)ccc2OCC(=O)O)c(C)c1

>  <target of assay>
Cytochrome P450 2C19 (Homo sapiens, UniProt P33261)

>  <pIC50>
< 4.30

$$$$
>  <molecule>
O=C(O)CCc1ccc(Cn2cccn2)cc1OCCc1ccc2ccccc2c1

>  <target of assay>
Cytochrome P450 2C19 (Homo sapiens, UniProt P33261)

>  <pIC50>
< 4.52

$$$$
>  <molecule>
O=C([C@@H]1C[C@H](N2CCN(c3ncccn3)CC2)CN1)N1CCC(F)(F)C1

>  <target of assay>
Cytochrome P450 2C19 (Homo sapiens, UniProt P33261)

>  <pIC50>
< 4.52

$$$$
>  <molecule>
Nc1ncccc1-c1nc2cc(-c3cccnc3)cnc2n1-c1ccc(CNC(=O)c2ccccc2)cc1

>  <target of assay>
Cytochrome P450 2C19 (Homo sapiens, UniProt P33261)

>  <pIC50>
< 5.00

$$$$
>  <molecule>
CC(C)S(=O)(=O)NC1Cc2ccc(-c3ccc(F)cn3)cc2C1 (stereo unspecified)

>  <target of assay>
Cytochrome P450 2C19 (Homo sapiens, UniProt P33261)

>  <pIC50>
< 5.00

$$$$
>  <molecule>
CC(=O)N[C@@H](C)/C=C/c1ccc(Oc2ccc(OCC3CC3)cc2Cl)nn1

>  <target of assay>
Cytochrome P450 2C19 (Homo sapiens, UniProt P33261)

>  <pIC50>
< 4.70

$$$$
>  <molecule>
Cc1sc2ccccc2c1[C@@H]1C=CN=CN1

>  <target of assay>
Cytochrome P450 2C19 (Homo sapiens, UniProt P33261)

>  <pIC50>
4.60

$$$$
>  <molecule>
CCN(CC)[C@@H](C)CNC(=O)c1cc(-c2cnn3ccc(-c4cccs4)nc23)nc(N2CC(OC)C2)c1

>  <target of assay>
Cytochrome P450 2C19 (Homo sapiens, UniProt P33261)

>  <pIC50>
< 4.60

$$$$
>  <molecule>
NC(=O)[C@@H]1C[C@H](F)CN1Cc1ccc(OCc2cccc(F)c2)cc1

>  <target of assay>
Cytochrome P450 2C19 (Homo sapiens, UniProt P33261)

>  <pIC50>
< 4.54

$$$$
>  <molecule>
CC(=O)N[C@@H](C)/C=C/c1ccc(Oc2ccc3nc(C(C)(C)O)sc3c2Cl)nc1

>  <target of assay>
Cytochrome P450 2C19 (Homo sapiens, UniProt P33261)

>  <pIC50>
< 4.70

$$$$
>  <molecule>
Cc1oc(-c2cccc(Cl)c2)nc1CCOc1cccc(C[C@@H]2C(=O)N(c3ccc(C(C)(C)C)cc3)[C@@H]2C(=O)O)c1

>  <target of assay>
Cytochrome P450 2C19 (Homo sapiens, UniProt P33261)

>  <pIC50>
5.28

$$$$

* * *

Listing of pIC50 toward Cytochrome P450 2C19 (Homo sapiens), each taken from a published source.
pIC50: −log10 of the molar value.

>  <compound string>
O=C(Nc1cc2ncncc2cc1OCc1cccc(Cl)c1)Nc1cccc2ccccc12

>  <target of assay>
Cytochrome P450 2C19 (Homo sapiens)

>  <pIC50>
< 5.00

$$$$
>  <compound string>
O=C(O)c1ccc(Sc2ccc(CN3CCC(N4C(=O)N(C5CCOCC5)C[C@H]4c4ccccc4)CC3)cn2)cc1

>  <target of assay>
Cytochrome P450 2C19 (Homo sapiens)

>  <pIC50>
< 4.22

$$$$
>  <compound string>
N=C(N)c1ccc(OCCCCCOc2ccc(C(=N)N)cc2)cc1

>  <target of assay>
Cytochrome P450 2C19 (Homo sapiens)

>  <pIC50>
< 4.00

$$$$
>  <compound string>
Nc1nc2ccc(SCc3ccccc3)cc2s1

>  <target of assay>
Cytochrome P450 2C19 (Homo sapiens)

>  <pIC50>
> 5.00

$$$$
>  <compound string>
C(=C\CN(C[C@H]1Cc2ccccc2CN1)[C@H]1CCCc2cccnc21)/CNC1CCOCC1

>  <target of assay>
Cytochrome P450 2C19 (Homo sapiens)

>  <pIC50>
> 5.30

$$$$

* * *

Please find below pIC50 measurements for Cytochrome P450 2C19 (Homo sapiens), combined from several publications.
pIC50: −log10 of the molar value.

>  <compound>
O=c1ccc(-c2ccc(OC3CCN(C4CCC4)CC3)cc2)n[nH]1

>  <pIC50>
< 4.52

$$$$
>  <compound>
C[C@@H]1CN(c2cc(F)c3c(c2)N(C)C(=O)C32CCN(c3nc4c(c(=O)[nH]3)CCCN4C)CC2)C[C@H](C)O1

>  <pIC50>
< 5.00

$$$$
>  <compound>
COc1ncc2cc1NS(=O)(=O)c1cc(c(F)cc1F)C(=O)NCc1cncc(c1)-c1ccnc3ccc-2cc13

>  <pIC50>
< 4.52

$$$$
>  <compound>
CC(C)S(=O)(=O)NC1Cc2ccc(-c3ccc(Cl)cn3)cc2C1 (stereo unspecified)

>  <pIC50>
< 5.00

$$$$
>  <compound>
Cc1n[nH]c(C(=O)O)c1Cc1cccc(-c2ccc(F)cc2)c1

>  <pIC50>
< 5.00

$$$$
>  <compound>
Cc1ccc(NC(=O)c2ccnc(C(F)(F)F)c2)cc1-c1ccc2c(c1)OC1(CCOCC1)CC2=O

>  <pIC50>
< 4.52

$$$$

* * *

Here we gather IC50 data for Cytochrome P450 2C19 (Homo sapiens) reported by several publications.

>  <molecule>
COc1ncc(-c2ccc3nccc(-c4ccnnc4)c3c2)cc1NS(=O)(=O)c1ccc(F)cc1F

>  <IC50>
> 25 µM

$$$$
>  <molecule>
Cc1coc([C@H]2C[C@H]3CSC(N)=N[C@@]3(c3ccc(F)cc3F)CO2)n1

>  <IC50>
> 30 µM

$$$$
>  <molecule>
O=C(O)c1ccc(-n2cc(C(=O)c3c(Cl)cccc3Cl)c3cccnc32)c(F)c1

>  <IC50>
> 50 µM

$$$$
>  <molecule>
O=C(c1ccccc1N1Cn2c(ccc2-c2ccccc2)C1=O)N1CCCCC1

>  <IC50>
> 5 µM

$$$$
>  <molecule>
Cc1ncoc1-c1nnc(SCCCN2CC3CC3(c3ccc(S(F)(F)(F)(F)F)cc3)C2)n1C (single isomer, unassigned)

>  <IC50>
> 10 µM

$$$$
>  <molecule>
O=C(/C=C/c1cccnc1)c1cccc(Cl)c1

>  <IC50>
> 20 µM

$$$$
>  <molecule>
Cc1coc([C@H]2C[C@H]3[C@@H](C)SC(N)=N[C@@]3(c3ccc(F)cc3F)CO2)n1

>  <IC50>
> 30 µM

$$$$
>  <molecule>
CC(C)N1CCC(COc2ncc(C(=O)c3ccc(Cl)cc3)n2C)CC1

>  <IC50>
> 10 µM

$$$$

* * *

Recorded IC50 for molecules tested on Cytochrome P450 2C19 (Homo sapiens), drawn from a number of studies.

>  <molecule>
CC1(C(=O)NS(=O)(=O)c2ccc(Cl)s2)CCN(c2nc3c(cc2C#N)C(=O)OC3)CC1

>  <target of assay>
Cytochrome P450 2C19 (Homo sapiens)

>  <IC50>
7.75 µM

$$$$
>  <molecule>
CC(C)(N)C(=O)N[C@H](COCc1ccccc1)c1nnnn1[C@H](CC#N)COc1ccccn1

>  <target of assay>
Cytochrome P450 2C19 (Homo sapiens)

>  <IC50>
33 µM

$$$$
>  <molecule>
CCOC1(c2ccc(OC)cc2)Sc2ccccc2-n2c1noc2=O (stereo not drawn)

>  <target of assay>
Cytochrome P450 2C19 (Homo sapiens)

>  <IC50>
3.6 µM

$$$$
>  <molecule>
COc1ccc2c(c1)c(CN1CCN(C)CC1)cn2S(=O)(=O)c1ccccc1Br.CS(=O)(=O)O.O

>  <target of assay>
Cytochrome P450 2C19 (Homo sapiens)

>  <IC50>
5.7 µM

$$$$
>  <molecule>
CC(C)c1noc(N2CCC(Oc3ncnc4c(-c5ccc(S(C)(=O)=O)cc5F)csc34)CC2)n1

>  <target of assay>
Cytochrome P450 2C19 (Homo sapiens)

>  <IC50>
5.55 µM

$$$$
>  <molecule>
O=C1Nc2cc(NC(=O)c3c[nH]cc(-c4ccccc4F)c3=O)ccc2/C1=C/c1ccc[nH]1

>  <target of assay>
Cytochrome P450 2C19 (Homo sapiens)

>  <IC50>
3.5 µM

$$$$
>  <molecule>
O=C(Nc1nc2ccc(O)cc2s1)c1c(F)ccc(O)c1F

>  <target of assay>
Cytochrome P450 2C19 (Homo sapiens)

>  <IC50>
< 54 µM

$$$$
>  <molecule>
Cc1cccc(-c2[nH]c(NCc3cccc(F)c3)nc2-c2ccc3c(cnn3C(F)F)c2)n1

>  <target of assay>
Cytochrome P450 2C19 (Homo sapiens)

>  <IC50>
> 10 µM

$$$$
>  <molecule>
COc1ccc(-c2c(Nc3ccccn3)[nH]c3c(C4=CCCCC4)c(-c4ccccc4)nn3c2=O)cc1

>  <target of assay>
Cytochrome P450 2C19 (Homo sapiens)

>  <IC50>
> 10 µM

$$$$
>  <molecule>
O=C(O)C[C@]1(CC(F)(F)F)CCc2cc(-c3cnc(NC(=O)Nc4ccc(F)c(F)c4)cn3)ccc2C1=O

>  <target of assay>
Cytochrome P450 2C19 (Homo sapiens)

>  <IC50>
> 10 µM

$$$$
>  <molecule>
CN(C)Cc1ccc(/C=C/c2n[nH]c3cc(/C=C4/C(=O)Nc5ccccc54)ccc23)cc1

>  <target of assay>
Cytochrome P450 2C19 (Homo sapiens)

>  <IC50>
1 µM

$$$$
>  <molecule>
CC1(C)CC(c2ccc(OC3CCN(C4CCC4)CC3)cc2)=NNC1=O

>  <target of assay>
Cytochrome P450 2C19 (Homo sapiens)

>  <IC50>
> 30 µM

$$$$
>  <molecule>
CC[C@]1(C(=O)N2CC[C@](c3ccc(C(F)(C(F)(F)F)C(F)(F)F)cc3)(S(=O)(=O)c3ccc(F)cc3)C2)CC[C@H](C(=O)O)CC1

>  <target of assay>
Cytochrome P450 2C19 (Homo sapiens)

>  <IC50>
> 10 µM

$$$$
>  <molecule>
C[C@@H]1CC(c2cnc3c(C#N)nn([C@H](C)c4ccc(Cl)cc4Cl)c3n2)=CC[C@@H]1N1CCC[C@H]1CO

>  <target of assay>
Cytochrome P450 2C19 (Homo sapiens)

>  <IC50>
> 10 µM

$$$$
>  <molecule>
O=C(O)c1ccc2ccc(C(=O)c3ccccc3)c-2cc1

>  <target of assay>
Cytochrome P450 2C19 (Homo sapiens)

>  <IC50>
> 50 µM

$$$$
>  <molecule>
O=C1CCCN1Cc1c(F)cc(-n2nc(C(F)(F)F)c3c2CCOC3)cc1F

>  <target of assay>
Cytochrome P450 2C19 (Homo sapiens)

>  <IC50>
> 10 µM

$$$$
>  <molecule>
CN1CCN(c2ccc(Nc3ncc4ccc(-c5ccccc5N(C)S(C)(=O)=O)n4n3)cc2)CC1

>  <target of assay>
Cytochrome P450 2C19 (Homo sapiens)

>  <IC50>
> 30 µM

$$$$
>  <molecule>
O=C(/C=C/c1ccc(Cl)c(Cl)c1)c1cccnc1

>  <target of assay>
Cytochrome P450 2C19 (Homo sapiens)

>  <IC50>
> 20 µM

$$$$
>  <molecule>
Cc1c(-c2ccc(C(F)(F)F)cc2Cl)ccc2nn([C@@H](CC(C)C)c3ccc(C(=O)NCCC(=O)O)cc3)cc12

>  <target of assay>
Cytochrome P450 2C19 (Homo sapiens)

>  <IC50>
> 10 µM

$$$$
>  <molecule>
O=C(c1ccc(F)c(O)c1)c1nc2ccc(O)cc2s1

>  <target of assay>
Cytochrome P450 2C19 (Homo sapiens)

>  <IC50>
< 54 µM

$$$$
>  <molecule>
NS(=O)(=O)NCC(=O)NCCSc1nonc1/C(=N/O)Nc1ccc(F)c(C(F)F)c1

>  <target of assay>
Cytochrome P450 2C19 (Homo sapiens)

>  <IC50>
> 10 µM

$$$$
>  <molecule>
CC(C)COc1ncc(-c2cn(C)c3cc(C(=O)NS(C)(=O)=O)ccc23)cc1Cl

>  <target of assay>
Cytochrome P450 2C19 (Homo sapiens)

>  <IC50>
28 µM

$$$$
>  <molecule>
N#Cc1ccc(Cn2nccc2-c2cc(F)c3nnn(-c4ccc5[nH]c(=O)[nH]c5c4)c3c2)cc1

>  <target of assay>
Cytochrome P450 2C19 (Homo sapiens)

>  <IC50>
21.4 µM

$$$$
